reported-endpoint: melting point

compound	melting point
Cc1cc2c(c(C(=O)NC(C)C)c1NC(=O)c1cc(OC(F)F)nn1-c1ncccc1Cl)OC(F)(F)O2	203 to 204 °C

Kindly consider the entry below.
Ask: Recorded melting point of CNC(=O)c1c(NC(=O)c2cc(C(F)F)nn2-c2ncccc2Cl)c(C)cc2c1OC(C)C2 (centres unmarked) , please.
Reply: 205 to 206 °C

###

The entries below come with measured melting point values attached.

Recorded results for 3 molecules are shown here.
molecule	melting point
CNC(=O)c1c(NC(=O)c2cc(C(F)F)nn2-c2ncccc2Cl)ccc2c1OC(C)C2 (stereo not shown)	211 to 213 °C
CNC(=O)c1c(NC(=O)c2cc(OC(F)F)nn2-c2ncccc2Cl)c(C)cc2c1OC(F)(F)O2	236 to 237 °C
CC(C)(CS(C)(=O)=O)NC(=O)c1c(NC(=O)c2cc(C(F)(F)F)nn2-c2ncccc2Cl)c(Cl)cc2c1OCO2	88 to 90 °C

Now turn to the next molecule.
Ask: Item CC(C)NC(=O)c1c(NC(=O)c2cc(C(F)F)nn2-c2ncccc2Cl)ccc2c1OC(C)C2 (stereo not shown) has what recorded melting point?
Reply: 169 to 170 °C

###

reported-endpoint: melting point

Ask: Entry under review: Cc1cc2c(c(C(=O)NC(C)C)c1NC(=O)c1cc(C(F)F)nn1-c1ncccc1Cl)OC(C)C2 (stereo not drawn) . Reported melting point?
Reply: 140 to 142 °C

Ask: What do we get for CCNC(=O)c1c(NC(=O)c2cc(Br)nn2-c2ncccc2Cl)ccc2c1OCO2 [P.65] ?
Reply: 178 to 179 °C

Ask: Same question, CC(C)(CS(C)(=N)=O)NC(=O)c1c(NC(=O)c2cc(Cl)nn2-c2ncccc2Cl)c(Cl)cc2c1OC(F)(F)O2 (stereo not drawn) this time
Reply: 188 to 190 °C

###

reported-endpoint: melting point

molecule	result
CSCC(C)(C)NC(=O)c1c(NC(=O)c2cc(C(F)(F)F)nn2-c2ncccc2Cl)c(C)cc2c1OC(F)(F)O2	173 to 174 °C
COc1cc(C(=O)Nc2ccc3c(c2C(=O)NC(C)C)OCO3)n(-c2ncccc2Cl)n1	216 to 217 °C

Continue with the next molecule.
Ask: So what does the record say about melting point for C[S+]([O-])CC(C)(C)NC(=O)c1c(NC(=O)c2cc(Cl)nn2-c2ncccc2Cl)c(Cl)cc2c1OC(F)(F)O2 (stereo not drawn) ?
Reply: 240 to 242 °C
